molecules and their reported kcat/Km
# System: Escherichia coli
# TEST_METHOD_NOTES: Activity of Escherichia coli BL21(DE3) beta-lactamase TEM28
Response body: numeric value in M⁻¹ s⁻¹, unit text excluded.

Example results:
> print(dat)
                                   molecule  measured.endpoint  unit.abbrev  readout.value
1  CCN1CCN(C(=O)N[C@@H](C(=O)N[C@@H]2C(=O)N3[C@@H]2SC(C)(C)[C@@H]3C(=O)O)c2ccccc2)C(=O)C1=O            kcat/Km      M⁻¹ s⁻¹        7.9e+06
2  CC1(C)S[C@@H]2[C@H](NC(=O)[C@H](C(=O)O)c3ccsc3)C(=O)N2[C@H]1C(=O)O            kcat/Km      M⁻¹ s⁻¹        4.2e+06
3  CO/N=C(\C(=O)N[C@@H]1C(=O)N2C(C(=O)[O-])=C(C[N+]3(C)CCCC3)CS[C@H]12)c1csc(N)n1            kcat/Km      M⁻¹ s⁻¹         110000
4  C[C@H]1[C@H](NC(=O)/C(=N\OC(C)(C)C(=O)O)c2csc(N)n2)C(=O)N1S(=O)(=O)O (stereo in doubt)            kcat/Km      M⁻¹ s⁻¹         570000
5  CO/N=C(\C(=O)N[C@@H]1C(=O)N2C(C(=O)O)=C(COC(C)=O)CS[C@H]12)c1csc(N)n1            kcat/Km      M⁻¹ s⁻¹         180000

(Q) Need kcat/Km of CC1(C)S[C@@H]2[C@H](NC(=O)[C@H](N)c3ccc(O)cc3)C(=O)N2[C@H]1C(=O)O , thanks.
(A) 7.3e+06

(Q) Need kcat/Km of CC(C)(O/N=C(\C(=O)N[C@@H]1C(=O)N2C(C(=O)[O-])=C(C[n+]3ccccc3)CS[C@H]12)c1csc(N)n1)C(=O)O , thanks.
(A) 270000

(Q) Need kcat/Km of CC(=O)OCC1=C(C(=O)O)N2C(=O)[C@@H](NC(=O)Cc3cccs3)[C@H]2SC1 , thanks.
(A) 670000

src = ChEMBL document CHEMBL1146197
